Test system: RAW-Dual (murine macrophage reporter line)
Test: NF-kB reporter (SEAP) activity fold change vs agonist alone; higher = enhanced NF-kB activity
Conditions: modulator concentration 10 µM; agonist: LPS 0.1 ug/mL
Parameter: NF-kB reporter
Keep the answer to the number alone.

// worked examples, NF-kB reporter included
{"Compound": "CCn1cc(C(=O)O)c(=O)c2cc(F)c(N3CCN(C)CC3)cc21.CS(=O)(=O)O.O.O", "Test System": "RAW-Dual (murine macrophage reporter line)", "Test Result": 1.13}
{"Compound": "Cc1cc(C)n(N=Cc2c[nH]c3ccccc23)c(=O)c1C#N", "Test System": "RAW-Dual (murine macrophage reporter line)", "Test Result": 0.963}
{"Compound": "C#Cc1cccc(Nc2ncnc3cc(OC)c(OCCCCCCC(=O)NO)cc23)c1", "Test System": "RAW-Dual (murine macrophage reporter line)", "Test Result": 1.45}
{"Compound": "CC(C)Oc1ccc(C(=O)NC2CCN(c3ncnc4c3CCCC4)CC2)cn1", "Test System": "RAW-Dual (murine macrophage reporter line)", "Test Result": 1.14}
{"Compound": "CN(C)CCCN1c2ccccc2CCc2ccccc21.Cl", "Test System": "RAW-Dual (murine macrophage reporter line)", "Test Result": 1.04}
{"Compound": "Cc1c(Cl)cccc1NC(=O)C(Cl)=Cc1ccccc1", "Test System": "RAW-Dual (murine macrophage reporter line)", "Test Result": 0.929}
{"Compound": "Oc1c(Cl)cc(Cl)cc1C=Nc1cc(Cl)cc(Cl)c1", "Test System": "RAW-Dual (murine macrophage reporter line)", "Test Result": 0.915}
{"Compound": "C=CC(=O)Nc1cccc(Nc2nc(Nc3ccc(N4CCN(C(C)=O)CC4)cc3OC)ncc2C(F)(F)F)c1", "Test System": "RAW-Dual (murine macrophage reporter line)", "Test Result": 0.662}

Enquiry: What value of NF-kB reporter has been recorded for this entry: "CCOC(=O)C1=C(C)N(CC(C)C)C(=O)C1=Cc1cccc(Br)c1"
Return: 1.04

Enquiry: Please answer likewise for "CCOc1ccc(-c2cccc(NC(=O)c3c(F)cccc3F)c2)nn1"
Return: 1.06

Enquiry: Query COC(=O)C1=CN(CC2CCCO2)C=C(C(=O)OC)C1c1cccc(Br)c1 (stereo not drawn) next
Return: 0.871

Enquiry: Now this one: "COc1ccc([C@@H]2Sc3ccccc3N(CCN(C)C)C(=O)[C@@H]2OC(C)=O)cc1.Cl"
Return: 1.02

Enquiry: Subsequent entry: "Oc1ccc(N=Cc2ccccc2)cc1"
Return: 1.2

Enquiry: Another compound to look at: "CC1(C)CC(=O)C2=C(C1)OC(N)=C(C#N)C21CCCC1"
Return: 0.94

Enquiry: Request: "COc1ccc(N(CC(=O)NCCSCc2cccc(Cl)c2)S(C)(=O)=O)cc1Cl"
Return: 0.98

Enquiry: Similarly, "C=CCNC1=C2C[C@@H](C)C[C@H](OC)[C@H](O)[C@@H](C)/C=C(\C)[C@H](OC(N)=O)[C@@H](OC)/C=C\C=C(/C)C(=O)NC(=CC1=O)C2=O" ?
Return: 0.215

Enquiry: How about this compound: "Cc1cc(C(=O)NNCc2ccccc2)no1"
Return: 1.18

Enquiry: Item: CC(C)NCC(O)c1ccc(NS(C)(=O)=O)cc1.Cl (stereo not drawn)
Return: 1.02

Enquiry: What about this compound? "CN(CC(=O)O)c1nc2ccc(OC(F)(F)F)cc2s1"
Return: 1.03

Enquiry: Please give the result for COc1ccccc1OCC(O)COC(N)=O (stereo not drawn) too.
Return: 1.28

Enquiry: Same for "CCCc1cc(=O)oc2cc(OCC(=O)OC)c(Cl)cc12"
Return: 0.967

Enquiry: What about this compound? "O=C(CCCN1CCN(c2ccccn2)CC1)c1ccc(F)cc1"
Return: 1.05

Enquiry: COc1ccc(C2Nc3ccc(C(=O)c4ccccc4)cc3NC3=C2C(=O)CCC3)c(OC)c1 (stereo not drawn) , same question.
Return: 0.844

Enquiry: Try this compound next: "CCOC(=O)C1=C(C)NC(C)=C(C(=O)OCC)C1c1ccco1"
Return: 1.01

Enquiry: Also "CC(=O)c1ccc(Nc2ncnc(Nc3ccc(C(C)=O)cc3)c2[N+](=O)[O-])cc1" , if possible.
Return: 1.09

Value source: the supplement of paper PMC10646978
